- System: Enterococcus faecalis EFS.201 (ATCC 49452)
- Assay type: cell-based
- settings: ATCC 49452
Reported values of Efs201 MIC for individual entries
Field: numeric (µg/mL). Do not append units.

compound: CCCC1CCC(c2ccc(C(=O)N[C@@H](Cc3c[nH]c4ccccc34)C(=O)N[C@H](CC(N)=O)C(=O)N[C@@H](CC(=O)O)C(=O)N[C@@H]3C(=O)NCC(=O)N[C@@H](CCCN)C(=O)N[C@@H](CC(=O)O)C(=O)N[C@H](C)C(=O)N[C@@H](CC(=O)O)C(=O)NCC(=O)N[C@H](CO)C(=O)N[C@@H]([C@H](C)CC(=O)O)C(=O)N[C@@H](CC(=O)c4ccccc4N)C(=O)O[C@@H]3C)cc2)CC1 (single isomer, unassigned) [53 isomer II]
measure-unit: µg/mL
Efs201 MIC: 1

Input line: Let me know recorded Efs201 MIC for CC(C)Cc1ccc(C(C)C(=O)N[C@@H](Cc2c[nH]c3ccccc23)C(=O)N[C@H](CC(N)=O)C(=O)N[C@@H](CC(=O)O)C(=O)N[C@@H]2C(=O)NCC(=O)N[C@@H](CCCN)C(=O)N[C@@H](CC(=O)O)C(=O)N[C@H](C)C(=O)N[C@@H](CC(=O)O)C(=O)NCC(=O)N[C@H](CO)C(=O)N[C@@H]([C@H](C)CC(=O)O)C(=O)N[C@@H](CC(=O)c3ccccc3N)C(=O)O[C@@H]2C)cc1 (single isomer, unassigned) [45 isomer II] , thanks.
Output line: 32

###

- Test system: Enterococcus faecalis EFS.201 (ATCC 49452)
- Assay type: cell-based
- settings: MHBc with 50 mg/L calcium, 18-20 hours at 37° C.
measured-endpoint: Efs201 MIC (µg/mL)
Provide only the numeric value, understood in µg/mL.

compound: C[C@H](CC(=O)O)[C@@H]1NC(=O)[C@@H](CO)NC(=O)CNC(=O)[C@H](CC(=O)O)NC(=O)[C@@H](C)NC(=O)[C@H](CC(=O)O)NC(=O)[C@H](CCCN)NC(=O)CNC(=O)[C@@H](NC(=O)[C@H](CC(=O)O)NC(=O)[C@@H](CC(N)=O)NC(=O)[C@H](Cc2c[nH]c3ccccc23)NC(=O)/C=C/c2ccc(-c3ccccc3)cc2)[C@@H](C)OC(=O)[C@H](CC(=O)c2ccccc2N)NC1=O [Compound 71]
measured-endpoint: Efs201 MIC
measure-unit: µg/mL
numeric-value: 8

Continue with the compound presented below.
Input line: Enter recorded Efs201 MIC with Enterococcus faecalis EFS.201 (ATCC 49452) for CCCCCCCCCCCCCCCOc1ccc(C(=O)N[C@@H](Cc2c[nH]c3ccccc23)C(=O)N[C@H](CC(N)=O)C(=O)N[C@@H](CC(=O)O)C(=O)N[C@@H]2C(=O)NCC(=O)N[C@@H](CCCN)C(=O)N[C@@H](CC(=O)O)C(=O)N[C@H](C)C(=O)N[C@@H](CC(=O)O)C(=O)NCC(=O)N[C@H](CO)C(=O)N[C@@H]([C@H](C)CC(=O)O)C(=O)N[C@@H](CC(=O)c3ccccc3N)C(=O)O[C@@H]2C)cc1 [Compound 40] here.
Output line: 4.0

###

- Test system: Enterococcus faecalis EFS.201 (ATCC 49452)
- Assay type: cell-based
- settings: ATCC 49452
measured-endpoint: Efs201 MIC (µg/mL)
Kindly provide the numeric value in µg/mL only, without the unit symbol.

Examples with answers:
molecule: CCCCCCC1CCC(c2ccc(C(=O)N[C@@H](Cc3c[nH]c4ccccc34)C(=O)N[C@H](CC(N)=O)C(=O)N[C@@H](CC(=O)O)C(=O)N[C@@H]3C(=O)NCC(=O)N[C@@H](CCCN)C(=O)N[C@@H](CC(=O)O)C(=O)N[C@H](C)C(=O)N[C@@H](CC(=O)O)C(=O)NCC(=O)N[C@H](CO)C(=O)N[C@@H]([C@H](C)CC(=O)O)C(=O)N[C@@H](CC(=O)c4ccccc4N)C(=O)O[C@@H]3C)cc2)CC1 (single isomer, unassigned) [54 isomer II]
Efs201 MIC / µg/mL: 2
--
molecule: CCCCCc1ccc(C(=O)N[C@@H](Cc2c[nH]c3ccccc23)C(=O)N[C@H](CC(N)=O)C(=O)N[C@@H](CC(=O)O)C(=O)N[C@@H]2C(=O)NCC(=O)N[C@@H](CCCN)C(=O)N[C@@H](CC(=O)O)C(=O)N[C@H](C)C(=O)N[C@@H](CC(=O)O)C(=O)NCC(=O)N[C@H](CO)C(=O)N[C@@H]([C@H](C)CC(=O)O)C(=O)N[C@@H](CC(=O)c3ccccc3N)C(=O)O[C@@H]2C)cc1 [Compound 31]
Efs201 MIC / µg/mL: 16
--
molecule: CCCCCCCCCCCC(=O)N[C@@H](Cc1c[nH]c2ccccc12)C(=O)N[C@H](CC(N)=O)C(=O)N[C@@H](CC(=O)O)C(=O)N[C@@H]1C(=O)NCC(=O)N[C@@H](CCCN)C(=O)N[C@@H](CC(=O)O)C(=O)N[C@H](C)C(=O)N[C@@H](CC(=O)O)C(=O)NCC(=O)N[C@H](CO)C(=O)N[C@@H]([C@H](C)CC(=O)O)C(=O)N[C@@H](CC(=O)c2ccccc2N)C(=O)O[C@@H]1C [Compound 3]
Efs201 MIC / µg/mL: 0.5

Consider the record given below.
Input line: Specify reported Efs201 MIC for the molecule shown: CCCCCCC12CCC(C(=O)N[C@@H](Cc3c[nH]c4ccccc34)C(=O)N[C@H](CC(N)=O)C(=O)N[C@@H](CC(=O)O)C(=O)N[C@@H]3C(=O)NCC(=O)N[C@@H](CCCN)C(=O)N[C@@H](CC(=O)O)C(=O)N[C@H](C)C(=O)N[C@@H](CC(=O)O)C(=O)NCC(=O)N[C@H](CO)C(=O)N[C@@H]([C@H](C)CC(=O)O)C(=O)N[C@@H](CC(=O)c4ccccc4N)C(=O)O[C@@H]3C)(CC1)CC2 [Compound 23]
Output line: 0.5

###

- System: Staphylococcus aureus SAU.399 (ATCC 43300), Methicillin and Oxacillin Resistant
- Assay type: cell-based
- settings: ATCC 43300
measured-endpoint: Sa399 MIC (µg/mL)
Kindly answer with a numeric value in µg/mL, unit omitted.

For orientation, consider the following solved cases.
compound: CCCCOc1ccc(-c2ccc(C(=O)N[C@@H](Cc3c[nH]c4ccccc34)C(=O)N[C@H](CC(N)=O)C(=O)N[C@@H](CC(=O)O)C(=O)N[C@@H]3C(=O)NCC(=O)N[C@@H](CCCN)C(=O)N[C@@H](CC(=O)O)C(=O)N[C@H](C)C(=O)N[C@@H](CC(=O)O)C(=O)NCC(=O)N[C@H](CO)C(=O)N[C@@H]([C@H](C)CC(=O)O)C(=O)N[C@@H](CC(=O)c4ccccc4N)C(=O)O[C@@H]3C)cc2)cc1 [Compound 60]
Sa399 MIC [µg/mL]: 4
//
compound: CCCCCC1CCC([C@H]2CC[C@H](C(=O)N[C@@H](Cc3c[nH]c4ccccc34)C(=O)N[C@H](CC(N)=O)C(=O)N[C@@H](CC(=O)O)C(=O)N[C@@H]3C(=O)NCC(=O)N[C@@H](CCCN)C(=O)N[C@@H](CC(=O)O)C(=O)N[C@H](C)C(=O)N[C@@H](CC(=O)O)C(=O)NCC(=O)N[C@H](CO)C(=O)N[C@@H]([C@H](C)CC(=O)O)C(=O)N[C@@H](CC(=O)c4ccccc4N)C(=O)O[C@@H]3C)CC2)CC1 (some centres unmarked) [Compound 20]
Sa399 MIC [µg/mL]: 2
//
compound: C[C@H](CC(=O)O)[C@@H]1NC(=O)[C@@H](CO)NC(=O)CNC(=O)[C@H](CC(=O)O)NC(=O)[C@@H](C)NC(=O)[C@H](CC(=O)O)NC(=O)[C@H](CCCN)NC(=O)CNC(=O)[C@@H](NC(=O)[C@H](CC(=O)O)NC(=O)[C@@H](CC(N)=O)NC(=O)[C@H](Cc2c[nH]c3ccccc23)NC(=O)CCCCCCC2CCCCC2)[C@@H](C)OC(=O)[C@H](CC(=O)c2ccccc2N)NC1=O [Compound 25]
Sa399 MIC [µg/mL]: 0.5

Input line: Tell me its Sa399 MIC given CC(C)Sc1ccc(-c2csc(C(=O)N[C@@H](Cc3c[nH]c4ccccc34)C(=O)N[C@H](CC(N)=O)C(=O)N[C@@H](CC(=O)O)C(=O)N[C@@H]3C(=O)NCC(=O)N[C@@H](CCCN)C(=O)N[C@@H](CC(=O)O)C(=O)N[C@H](C)C(=O)N[C@@H](CC(=O)O)C(=O)NCC(=O)N[C@H](CO)C(=O)N[C@@H]([C@H](C)CC(=O)O)C(=O)N[C@@H](CC(=O)c4ccccc4N)C(=O)O[C@@H]3C)c2)cc1 [Compound 55] as the entry.
Output line: 0.25

Input line: Determine its reported Sa399 MIC: CC(C)CCCCCCC(=O)N[C@@H](Cc1c[nH]c2ccccc12)C(=O)N[C@H](CC(N)=O)C(=O)N[C@@H](CC(=O)O)C(=O)N[C@@H]1C(=O)NCC(=O)N[C@@H](CCCN)C(=O)N[C@@H](CC(=O)O)C(=O)N[C@H](C)C(=O)N[C@@H](CC(=O)O)C(=O)NCC(=O)N[C@H](CO)C(=O)N[C@@H]([C@H](C)CC(=O)O)C(=O)N[C@@H](CC(=O)c2ccccc2N)C(=O)O[C@@H]1C [Compound 9]
Output line: 0.5

Reference for the values: patent US20150337013A1
